TARGET_OR_TEST_SYSTEM: T1, Human in house BCMA (Homo sapiens, UniProt Q02223)
T1 construct: CD33 signal peptide (N); TEV site (internal); Fc (C); made in house
T1 sequence (Q02223 with tags, fused parts or gaps limits assumed): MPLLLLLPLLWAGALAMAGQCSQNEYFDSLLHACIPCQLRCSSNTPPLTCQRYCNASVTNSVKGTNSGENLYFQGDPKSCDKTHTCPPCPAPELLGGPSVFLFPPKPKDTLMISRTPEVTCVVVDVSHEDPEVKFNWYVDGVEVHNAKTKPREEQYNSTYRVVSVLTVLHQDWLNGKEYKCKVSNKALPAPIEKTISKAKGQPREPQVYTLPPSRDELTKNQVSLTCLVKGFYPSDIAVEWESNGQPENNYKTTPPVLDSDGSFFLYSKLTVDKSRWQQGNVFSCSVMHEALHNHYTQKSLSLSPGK
TEST_DESCRIPTION: ProteOn analysis of CA8 chimeric and humanised constructs, human in house BCMA
Type: binding
STUDY_CONDITIONS: Run 1, Human in house BCMA, ProteOn, 25° C.; in M-1s-1 (unit assumed)
MEASUREMENT_NAME: ka

MOLECULE: CA8 humanised J0M1: humanised CA8 anti-BCMA antibody, VH J0 (SEQ ID NO:11) + VL M1 (SEQ ID NO:33) (antibody, V domains shown, Humansed antibody sequence) VH: QVQLVQSGAEVKKPGSSVKVSCKASGGTFSNYWMHWVRQAPGQGLEWMGATYRGHSDTYYNQKFKGRVTITADKSTSTAYMELSSLRSEDTAVYYCARGAIYNGYDVLDNWGQGTLVTVSS VL: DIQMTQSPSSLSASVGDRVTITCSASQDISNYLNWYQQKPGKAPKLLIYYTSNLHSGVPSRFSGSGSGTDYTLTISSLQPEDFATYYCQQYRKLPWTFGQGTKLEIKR
MEASUREMENT_NAME: ka
OBSERVED_VALUE: 2.31E+05

MOLECULE: S307118G03 humanised H2L1: humanised S307118G03, VH H2 (SEQ ID NO:81) + VL L1 (SEQ ID NO:91) (antibody, V domains shown, Humansed antibody sequence) VH: QVQLVQSGAEVKKPGSSVKVSCKASGYTFTDYYMKWVRQAPGQGLEWMGEIYPNNGGITYNQKFKGRVTITADKSTSTAYMELSSLRSEDTAVYYCANGYEFVYWGQGTLVTVSS VL: DIQMTQSPSSLSASVGDRVTITCSASQGISNYLNWYQQKPGKAPKLLIYYTSSLHSGVPSRFSGSGSGTDYTLTISSLQPEDFATYYCQQYSKLPWTFGQGTKLEIKR
MEASUREMENT_NAME: ka
OBSERVED_VALUE: 3.38E+05

MOLECULE: CA8 humanised J1M2: humanised CA8 anti-BCMA antibody, VH J1 (SEQ ID NO:13) + VL M2 (SEQ ID NO:35) (antibody, V domains shown, Humansed antibody sequence) VH: QVQLVQSGAEVKKPGSSVKVSCKASGYTFTNYWMHWVRQAPGQGLEWMGATYRGHSDTYYNQKFKGRVTITADKSTSTAYMELSSLRSEDTAVYYCARGAIYNGYDVLDNWGQGTLVTVSS VL: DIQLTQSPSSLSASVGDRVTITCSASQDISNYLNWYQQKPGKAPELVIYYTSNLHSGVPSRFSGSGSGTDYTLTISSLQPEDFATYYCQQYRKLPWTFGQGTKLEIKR
MEASUREMENT_NAME: ka
OBSERVED_VALUE: 2.15E+05

MOLECULE: S307118G03 humanised H2L0: humanised S307118G03, VH H2 (SEQ ID NO:81) + VL L0 (SEQ ID NO:89) (antibody, V domains shown, Humansed antibody sequence) VH: QVQLVQSGAEVKKPGSSVKVSCKASGYTFTDYYMKWVRQAPGQGLEWMGEIYPNNGGITYNQKFKGRVTITADKSTSTAYMELSSLRSEDTAVYYCANGYEFVYWGQGTLVTVSS VL: DIQMTQSPSSLSASVGDRVTITCSASQGISNYLNWYQQKPGKAPKLLIYYTSSLHSGVPSRFSGSGSGTDFTLTISSLQPEDFATYYCQQYSKLPWTFGQGTKLEIKR
MEASUREMENT_NAME: ka
OBSERVED_VALUE: 3.78E+05

MOLECULE: CA8 humanised J4M2: humanised CA8 anti-BCMA antibody, VH J4 (SEQ ID NO:19) + VL M2 (SEQ ID NO:35) (antibody, V domains shown, Humansed antibody sequence) VH: QVQLVQSGAEVKKPGSSVKVSCKGSGYTFTNYWMHWVRQAPGQGLEWIGATYRGHSDTYYNQKFKGRATLTADTSTSTAYMELSSLRSEDTAVYYCTRGAIYNGYDVLDNWGQGTLVTVSS VL: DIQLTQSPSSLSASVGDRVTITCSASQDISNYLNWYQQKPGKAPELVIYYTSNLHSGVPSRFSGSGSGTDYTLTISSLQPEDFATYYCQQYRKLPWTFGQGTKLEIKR
MEASUREMENT_NAME: ka
OBSERVED_VALUE: 2.51E+05

MOLECULE: CA8 humanised J0M2: humanised CA8 anti-BCMA antibody, VH J0 (SEQ ID NO:11) + VL M2 (SEQ ID NO:35) (antibody, V domains shown, Humansed antibody sequence) VH: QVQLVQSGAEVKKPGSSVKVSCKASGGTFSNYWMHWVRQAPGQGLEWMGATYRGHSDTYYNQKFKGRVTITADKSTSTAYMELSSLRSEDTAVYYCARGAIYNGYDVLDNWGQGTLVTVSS VL: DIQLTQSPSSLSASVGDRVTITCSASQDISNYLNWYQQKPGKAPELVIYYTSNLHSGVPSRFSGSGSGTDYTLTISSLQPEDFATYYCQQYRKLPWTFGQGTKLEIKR
MEASUREMENT_NAME: ka
OBSERVED_VALUE: 2.25E+05

MOLECULE: CA8 humanised J2M1: humanised CA8 anti-BCMA antibody, VH J2 (SEQ ID NO:15) + VL M1 (SEQ ID NO:33) (antibody, V domains shown, Humansed antibody sequence) VH: QVQLVQSGAEVKKPGSSVKVSCKASGYTFTNYWMHWVRQAPGQGLEWMGATYRGHSDTYYNQKFKGRVTITADKSTSTAYMELSSLRSEDTAVYYCTRGAIYNGYDVLDNWGQGTLVTVSS VL: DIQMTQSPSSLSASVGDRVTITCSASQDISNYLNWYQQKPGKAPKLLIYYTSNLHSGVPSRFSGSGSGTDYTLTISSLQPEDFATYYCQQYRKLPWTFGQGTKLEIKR
MEASUREMENT_NAME: ka
OBSERVED_VALUE: 2.04E+05
